- Test system: full-length E. coli LexA (RecA*-induced cleavage) (Escherichia coli, UniProt P0A7C2)
- Construct: Full-length E. coli and P. aeruginosa LexA were engineered with a RRXS phosphorylation site on the N-terminus of the full-length protein
- Sequence (P0A7C2 whole entry): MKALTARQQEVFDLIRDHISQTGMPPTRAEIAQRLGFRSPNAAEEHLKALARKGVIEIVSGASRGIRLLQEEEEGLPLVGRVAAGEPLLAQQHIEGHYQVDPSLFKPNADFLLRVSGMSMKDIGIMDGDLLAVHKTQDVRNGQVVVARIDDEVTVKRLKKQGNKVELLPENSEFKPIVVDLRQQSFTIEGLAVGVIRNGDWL
- Assay notes: Orthogonal 32P-LexA cleavage assay, full-length E. coli LexA
pIC50: −log10 of the molar value.

>  <Compound>
CCOc1ccc(NC(=O)Cn2nnc(C(=O)Nc3ccccc3)c2N)cc1 [Compound 14]

>  <pIC50>
5.00

$$$$

====

- Test system: full length E. coli LexA (Escherichia coli, UniProt P0A7C2)
- Construct: a fluorescence-independent assay using a full-length version of E. coli LexA was employed
- Assay notes: Auto-proteolysis of 32P-labelled full length E. coli LexA in the absence of RecA
- Text: Supplementary Figure 2. Binding of 14 to LexA alone. (a) Inhibition of the auto-proteolysis of 32P-labelleled full length E. coli LexA by 14 in the absence of RecA. All data represent the mean of two independent measurements and the error bars represent the range of error. The error of the IC50 value is the standard deviation of the fit of equation 1 to the data. […] (SOS box). […] The samples were separated on a non-denaturing polyacrylamide gel (at right) and the bound fraction calculated. […]

>  <Input smiles>
CCOc1ccc(NC(=O)Cn2nnc(C(=O)Nc3ccccc3)c2N)cc1

>  <IC50 (µM)>
15.2

$$$$

====

- Test system: E. coli FlAsH-LexA (RecA-promoted LexA cleavage) (Escherichia coli, UniProt P0A7C2)
- Sequence (P0A7G6 2-353, one chain of several): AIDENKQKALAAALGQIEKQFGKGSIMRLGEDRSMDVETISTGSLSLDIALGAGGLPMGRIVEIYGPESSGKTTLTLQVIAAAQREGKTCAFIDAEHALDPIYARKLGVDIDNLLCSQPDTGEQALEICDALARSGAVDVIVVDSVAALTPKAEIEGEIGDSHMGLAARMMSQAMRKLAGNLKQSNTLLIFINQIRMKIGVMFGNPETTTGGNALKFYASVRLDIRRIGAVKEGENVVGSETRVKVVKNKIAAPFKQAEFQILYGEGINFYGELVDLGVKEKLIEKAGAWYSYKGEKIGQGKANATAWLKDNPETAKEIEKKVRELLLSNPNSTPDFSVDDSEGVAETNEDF
pIC50: −log10 of the molar value.
Endpoint name: pIC50

>  <Compound>
Cc1ccc(NC(=O)c2nnn(CC(=O)NC3CCCCCC3)c2N)cc1C [Compound 4]

>  <Limit sign>
=

>  <Experimental result>
4.66

$$$$
>  <Compound>
Cc1ccc(NC(=O)c2nnn(CC(=O)Nc3ccccc3)c2N)cc1C [Compound 2]

>  <Limit sign>
<

>  <Experimental result>
4.00

$$$$
>  <Compound>
Cc1ccc(NC(=O)Cn2nnc(C(=O)Nc3ccc(C)c(C)c3)c2N)c(C)c1 [Compound 8]

>  <Limit sign>
=

>  <Experimental result>
4.82

$$$$
>  <Compound>
Cc1cccc(NC(=O)Cn2nnc(C(=O)Nc3ccc(C)c(C)c3)c2N)c1 [Compound 6]

>  <Limit sign>
<

>  <Experimental result>
4.00

$$$$
>  <Compound>
CCOc1ccc(NC(=O)Cn2nnc(C(=O)Nc3cccnc3)c2N)cc1 [Compound 13]

>  <Limit sign>
=

>  <Experimental result>
4.40

$$$$

====

- Test system: E. coli FlAsH-LexA (RecA-promoted LexA cleavage) (Escherichia coli, UniProt P0A7C2)
pIC50: −log10 of the molar value.
In this section we review reported pIC50 values for a set of compounds.

>  <Compound>
CCOc1ccc(NC(=O)Cn2nnc(C(=O)Nc3ccc(C)c(C)c3)c2N)cc1 [Compound 1]

>  <Limit sign>
=

>  <pIC50>
4.49

$$$$
>  <Compound>
Cc1ccc(NC(=O)Cn2nnc(C(=O)Nc3ccc(C)c(C)c3)c2N)cc1 [Compound 7]

>  <Limit sign>
=

>  <pIC50>
4.74

$$$$
>  <Compound>
Cc1ccc(NC(=O)c2nnn(CC(=O)Nc3ccccc3C)c2N)cc1C [Compound 5]

>  <Limit sign>
=

>  <pIC50>
4.77

$$$$
>  <Compound>
CCOc1ccc(NC(=O)Cn2nnc(C(=O)Nc3cccc(C)c3)c2N)cc1 [Compound 10]

>  <Limit sign>
=

>  <pIC50>
4.48

$$$$
>  <Compound>
Cc1ccc(NC(=O)c2nnn(CC(=O)NC3CCCCC3)c2N)cc1C [Compound 3]

>  <Limit sign>
=

>  <pIC50>
4.36

$$$$
>  <Compound>
CCOc1ccc(NC(=O)Cn2nnc(C(=O)Nc3ccccc3)c2N)cc1 [Compound 14]

>  <Limit sign>
=

>  <pIC50>
5.05

$$$$
>  <Compound>
CCOc1ccc(NC(=O)Cn2nnc(C(=O)Nc3ccc(C)cc3)c2N)cc1 [Compound 11]

>  <Limit sign>
=

>  <pIC50>
4.82

$$$$
>  <Compound>
CCOc1ccc(NC(=O)Cn2nnc(C(=O)Nc3ccccc3C)c2N)cc1 [Compound 9]

>  <Limit sign>
<

>  <pIC50>
4.00

$$$$
>  <Compound>
CCOC(=O)c1ccc(NC(=O)c2nnn(CC(=O)Nc3ccc(OCC)cc3)c2N)cc1 [Compound 12]

>  <Limit sign>
=

>  <pIC50>
4.72

$$$$

====

- Test system: full length LexA from P. aeruginosa (RecA*-mediated cleavage) (Pseudomonas aeruginosa)
- Construct: examining RecA^∗-mediated cleavage of full length LexA from P. aeruginosa
- Sequence (P37452 whole entry): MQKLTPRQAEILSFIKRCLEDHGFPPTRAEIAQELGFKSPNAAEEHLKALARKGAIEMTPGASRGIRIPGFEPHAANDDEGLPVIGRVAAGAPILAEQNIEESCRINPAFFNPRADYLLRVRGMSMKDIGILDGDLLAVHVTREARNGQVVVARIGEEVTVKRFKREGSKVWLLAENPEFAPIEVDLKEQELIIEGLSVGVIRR
- Assay notes: Orthogonal 32P-LexA cleavage assay, full-length P. aeruginosa LexA
Endpoint name: IC50 (µM)

>  <Input smiles>
CCOc1ccc(NC(=O)Cn2nnc(C(=O)Nc3ccccc3)c2N)cc1

>  <Experimental result>
5.9

$$$$
>  <Input smiles>
CCOc1ccc(NC(=O)Cn2nnc(C(=O)Nc3ccc(C)c(C)c3)c2N)cc1

>  <Experimental result>
130

$$$$

====

- Test system: E. coli FlAsH-LexA (RecA-promoted LexA cleavage) (Escherichia coli)
- Condition context: highest concentration 111 μM
Endpoint name: activity in FlAsH-LexA cleavage assay (in words)

>  <Molecule>
CCOc1ccc(NC(=O)Cn2nnc(C(=O)Nc3cccc(C)c3)c2N)cc1 [Compound 10]

>  <Experimental result>
allowed

$$$$
>  <Molecule>
Cc1ccc(NC(=O)c2nnn(CC(=O)NC3CCCCCC3)c2N)cc1C [Compound 4]

>  <Experimental result>
returned activity

$$$$
>  <Molecule>
Cc1cccc(NC(=O)Cn2nnc(C(=O)Nc3ccc(C)c(C)c3)c2N)c1 [Compound 6]

>  <Experimental result>
not tolerated

$$$$
>  <Molecule>
CCOc1ccc(NC(=O)Cn2nnc(C(=O)Nc3cccnc3)c2N)cc1 [Compound 13]

>  <Experimental result>
tolerated

$$$$
>  <Molecule>
Cc1ccc(NC(=O)c2nnn(CC(=O)NC3CCCCC3)c2N)cc1C [Compound 3]

>  <Experimental result>
returned activity

$$$$
>  <Molecule>
CCOc1ccc(NC(=O)Cn2nnc(C(=O)Nc3ccccc3C)c2N)cc1 [Compound 9]

>  <Experimental result>
not tolerated

$$$$
>  <Molecule>
CCOc1ccc(NC(=O)Cn2nnc(C(=O)Nc3ccc(C)cc3)c2N)cc1 [Compound 11]

>  <Experimental result>
allowed

$$$$
>  <Molecule>
CCOC(=O)c1ccc(NC(=O)c2nnn(CC(=O)Nc3ccc(OCC)cc3)c2N)cc1 [Compound 12]

>  <Experimental result>
tolerated

$$$$

====

- Assay notes: Solubility (inferred from titration curves in assay buffer; DMSO stocks)
- Format: physicochemical
- Condition context: FlAsH-LexA cleavage assay buffer, aqueous buffer; suggested by normal titration curves in FlAsH-LexA assay buffer; read-out: aqueous solubility maintained up to

>  <Compound>
CCOc1ccc(NC(=O)Cn2nnc(C(=O)Nc3cccnc3)c2N)cc1 [Compound 13]

>  <solubility>
≥ 111 µM

$$$$
>  <Compound>
Cc1ccc(NC(=O)c2nnn(CC(=O)NC3CCCCCC3)c2N)cc1C [Compound 4]

>  <solubility>
≥ 111 µM

$$$$
>  <Compound>
Cc1ccc(NC(=O)c2nnn(CC(=O)Nc3ccccc3C)c2N)cc1C [Compound 5]

>  <solubility>
≥ 111 µM

$$$$
>  <Compound>
CCOc1ccc(NC(=O)Cn2nnc(C(=O)Nc3ccc(C)cc3)c2N)cc1 [Compound 11]

>  <solubility>
≥ 111 µM

$$$$
>  <Compound>
Cc1ccc(NC(=O)c2nnn(CC(=O)NC3CCCCC3)c2N)cc1C [Compound 3]

>  <solubility>
≥ 111 µM

$$$$
>  <Compound>
CCOc1ccc(NC(=O)Cn2nnc(C(=O)Nc3ccccc3)c2N)cc1 [Compound 14]

>  <solubility>
≥ 111 µM

$$$$
>  <Compound>
CCOc1ccc(NC(=O)Cn2nnc(C(=O)Nc3ccc(C)c(C)c3)c2N)cc1 [Compound 1]

>  <solubility>
≥ 111 µM

$$$$
>  <Compound>
CCOC(=O)c1ccc(NC(=O)c2nnn(CC(=O)Nc3ccc(OCC)cc3)c2N)cc1 [Compound 12]

>  <solubility>
≥ 111 µM

$$$$
>  <Compound>
Cc1ccc(NC(=O)Cn2nnc(C(=O)Nc3ccc(C)c(C)c3)c2N)cc1 [Compound 7]

>  <solubility>
≥ 111 µM

$$$$
>  <Compound>
Cc1ccc(NC(=O)Cn2nnc(C(=O)Nc3ccc(C)c(C)c3)c2N)c(C)c1 [Compound 8]

>  <solubility>
≥ 111 µM

$$$$
>  <Compound>
CCOc1ccc(NC(=O)Cn2nnc(C(=O)Nc3cccc(C)c3)c2N)cc1 [Compound 10]

>  <solubility>
≥ 111 µM

$$$$

Each recorded value in this set is attributed to paper PMC6305444.
